Entries and their measured pKi follow.
target.or.test.system: Alpha-2A adrenergic receptor (Homo sapiens)
Sequence (P08913 whole entry): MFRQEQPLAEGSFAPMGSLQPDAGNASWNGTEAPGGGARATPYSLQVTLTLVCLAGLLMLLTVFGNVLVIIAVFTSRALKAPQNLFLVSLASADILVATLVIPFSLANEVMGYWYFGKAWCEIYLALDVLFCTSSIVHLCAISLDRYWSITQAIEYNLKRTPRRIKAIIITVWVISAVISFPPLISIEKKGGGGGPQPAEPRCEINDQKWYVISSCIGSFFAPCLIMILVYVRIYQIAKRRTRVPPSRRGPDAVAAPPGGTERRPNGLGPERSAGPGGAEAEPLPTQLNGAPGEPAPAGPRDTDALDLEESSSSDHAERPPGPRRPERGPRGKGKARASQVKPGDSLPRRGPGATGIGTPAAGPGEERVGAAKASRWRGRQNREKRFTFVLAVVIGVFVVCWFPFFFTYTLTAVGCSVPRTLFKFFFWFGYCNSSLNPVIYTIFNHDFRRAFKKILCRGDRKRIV
assay.summary: Affinity to human Alpha-2A adrenergic receptor determined by radioligand binding techniques from chinese hamster ovary (CHO) cells
Format: cell-based
pKi: −log10 of the molar value.
assay.endpoint: pKi

compound="C[S+]([O-])c1ccccc1NCC1=NCCN1 (stereo not drawn)" reading_qualifier== value=6.01
compound=O=S1(=O)CCCc2cccc(NCC3=NCCN3)c21 reading_qualifier== value=6.10
compound=CS(=O)(=O)c1cc(F)ccc1NCC1=NCCN1 reading_qualifier== value=6.40
compound=CSc1ccc(F)cc1NCC1=NCCN1 reading_qualifier== value=7.74
compound=CC(C)Sc1ccccc1NCC1=NCCN1 reading_qualifier== value=7.09
compound=CS(=O)(=O)c1c(F)cccc1NCC1=NCCN1 reading_qualifier=< value=5.10
compound=Cc1ccc(S(C)(=O)=O)c(NCC2=NCCN2)c1 reading_qualifier== value=5.41
compound=CS(=O)(=O)c1cc(Cl)ccc1NCC1=NCCN1 reading_qualifier== value=5.30
compound=CSc1ccc(C)cc1NCC1=NCCN1 reading_qualifier== value=7.20
compound=CC(C)S(=O)(=O)c1ccccc1NCC1=NCCN1 reading_qualifier== value=5.53
compound=COc1ccc(SC)c(NCC2=NCCN2)c1 reading_qualifier== value=6.66
compound=CS(=O)(=O)c1ccccc1NCC1=NCCN1 reading_qualifier== value=5.25
compound=CS(=O)(=O)c1ccc(Cl)cc1NCC1=NCCN1 reading_qualifier=< value=5.10

All values here come from ChEMBL document CHEMBL1135421.
